# Lookup of reported melting point keyed by entry
ASSAY_METRIC: melting point

INSERT INTO measurements (compound, measured_value) VALUES
  ('C(#Cc1ccccn1)CCn1nnc(-c2ccccc2)n1', '71 to 73 °C'),
  ('COc1cc(C=O)c(Cl)c(Cl)c1OC', '120 to 123 °C'),
  ('OC1(C(F)(F)F)ON=C(c2ccc(Cl)cc2)C1Cl (stereo not drawn)', '126 to 127 °C'),
  ('CCOC(=O)c1ncc2[nH]c3ccc([N+](=O)[O-])cc3c2c1C', '272 to 275 °C'),
  ('COc1ccc2oc3ccc(C=O)cc3c(=O)c2c1', '167 to 169 °C'),
  ('O=[N+]([O-])c1oc2ccccc2c1Br', '130 to 132 °C'),
  ('Cc1[nH]c2ccc(NS(C)(=O)=O)cc2c1C1=CCN(C)CC1', '176 to 184 °C'),
  ('Clc1ccc(-n2cc(-c3n[nH]c4ccccc34)nn2)cn1', '272 to 280 °C'),
  ('COC(=O)c1sc2ccc(CCl)cc2c1C', '115 to 116 °C'),
  ('O=c1c(O)c(-c2ccccn2)oc2ccc(OCc3ccc(F)cc3)cc12', '204 to 205 °C'),
  ('Cc1oc(=O)oc1Cn1nnc(-c2ccnc(-c3nnn(Cc4oc(=O)oc4C)n3)c2)n1', '150 to 152 °C'),
  ('N#CCCNC(=O)c1cccc(-c2ccc3c(c2)C(Nc2ccc(Cl)cc2Cl)CO3)c1 (stereo not drawn)', '165 to 166 °C'),
  ('COc1cc(C(=O)O)ccc1Cc1cccc2ccc(CCCC(=O)N(C)C)cc12', '231 to 232 °C');

###

ASSAY_METRIC: melting point

INSERT INTO results (smiles_representation, assay_metric, measured_value) VALUES
  ('CCOC(=O)c1ccc(OCC2CCN(C(=O)OC(C)(C)C)CC2)c(OC)c1', 'melting point', '81 to 83 °C'),
  ('CCOC(=O)c1cc(OC)c(OCC)c(OCC)c1-c1c(C(=O)OCC)cc(OC)c2c1OCO2', 'melting point', '73 to 74.5 °C'),
  ('CCCCCCc1ccc(-c2ncc(C#N)cn2)cc1', 'melting point', '86.3 to 87.8 °C'),
  ('Cc1cccc2c1ccc1c3occ(C)c3c(=O)oc21', 'melting point', '173 to 175 °C'),
  ('Nn1cccc1C(=O)C(F)(F)F', 'melting point', '33 to 35 °C'),
  ('Oc1ccc(Nc2nc(Cl)nc(NC3CCCCCC3)n2)cc1Cl', 'melting point', '91 °C');

###

# key: entry, value: melting point
ASSAY_METRIC: melting point

INSERT INTO measurements (compound, measured_value) VALUES
  ('CCCCc1oc2ccccc2c1C(=O)Nc1ccc2c(Br)c(OCC(=O)OC)ccc2c1', '179 to 181 °C'),
  ('Nc1noc2cc3c(cc12)C1(CO3)C(=O)N(Cc2ccccc2C(F)(F)F)c2ccccc21 (configuration not stated)', '262 to 264 °C'),
  ('COC(=O)CCCSc1c2c(=O)n(C)c(=O)n(CC(C)C)c2nn1Cc1cccc2ccccc12', '100 °C'),
  ('O=C(O)c1cccc(C(=O)O)c1S(=O)(=O)Nc1ccc(F)cc1C(F)(F)F', '250 to 254 °C'),
  ('O=C(O)c1ccc(C(=O)Nc2ccccc2C(c2ccc(O)cc2)c2ccc(O)cc2)cc1', '280 to 282 °C'),
  ('COC(=O)c1cc2cc(N)ccc2o1', '112 to 113 °C'),
  ('COc1cc2ncnc(Nc3cccc(Br)c3)c2cc1OC(C)=O', '238 °C'),
  ('CC1(O)CC(=O)OC(CCc2ccc(OCc3ccc(F)cc3)cc2)C1 (configuration not stated)', '144 °C'),
  ('OCc1cccnc1Oc1ccc(F)cc1', '70 to 72 °C'),
  ('O=C(NO)[C@H]1CN(S(=O)(=O)c2ccc(-c3ccon3)s2)CCN1S(=O)(=O)c1ccc(-c2ccccc2)s1', '204 °C'),
  ('c1cc2c3c(ccc(OCCCN4CCCCC4)c3c1)-c1cc(OCCCN3CCCCC3)ccc1-2', '92 to 93 °C'),
  ('COC(=O)C(=NO)c1nc2ccc(C)cc2oc1=O', '189 to 190 °C');

Where do these numbers come from? They come from a melting point compilation (Tetko et al.; mined from patent text by program, amines drawn as free bases though some values may be those of a salt).
